Source listed as paper PMC5540273.

test system: BMPR1B; details: concentration: 1 μM, replicates: in singlicate; n = 1;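 also: KINOMEscan kinase panel screen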
Quantity Kind: %Inh

Supply reported %Inh belonging to this compound: O=c1cc(N2CCOCC2)nc2n(Cc3cccc4ccccc34)ccn12
0%

Supply reported %Inh belonging to this compound: CNc1ncnc2[nH]ncc12
0%

Supply reported %Inh belonging to this compound: NS(=O)(=O)c1cccc(-c2ccc3nccc(-c4cccc(S(N)(=O)=O)c4)c3c2)c1
3%

Supply reported %Inh belonging to this compound: Nc1nc(-c2ccc3c(N)n[nH]c3c2)cc(N2CCCC2)n1
0%

Supply reported %Inh belonging to this compound: CCn1cnc2c(N)ncnc21
15%

Supply reported %Inh belonging to this compound: Cc1cn2c(=O)cc(N3CCOCC3)nc2n1Cc1cccc(Cl)c1Cl
0%

Supply reported %Inh belonging to this compound: N#Cc1c(N2CCOCC2)sc(-c2ccn[nH]2)c1-c1ccc(Cl)cc1
0%

Supply reported %Inh belonging to this compound: O=C1Cc2cc(Nc3nc(NCc4cccc(S(=O)(=O)C(F)(F)F)c4)ncc3C(F)(F)F)ccc2N1
18%

Supply reported %Inh belonging to this compound: O=C(Nc1cccc(-c2nn3ncccc3c2-c2ccnc(Nc3cccc(C(F)(F)F)c3)n2)c1)c1c(F)cccc1F
0%

====

Give %Inh for every item shown.
tested on: DCAMKL1; construct: gene DCLK1; details: concentration: 1 μM, replicates: in singlicate; n = 1
Write it as a number; the unit % goes unstated.

Enter %Inh (test system DCAMKL1) for O=C(NCCCN1CCOCC1)c1cccc(Nc2nccc(Nc3ccc(Oc4ccccc4)cc3)n2)c1
38

Enter %Inh (test system DCAMKL1) for Cc1ccc(NC(=O)c2ccnc(N3CCN(C)CC3)c2)cc1-c1ccc(C(=O)NCC2CC2)cc1
0

Enter %Inh (test system DCAMKL1) for N#Cc1c(N2CCOCC2)sc(-c2ccn[nH]2)c1-c1ccc(Cl)cc1
7

Enter %Inh (test system DCAMKL1) for Cc1cccc(-c2nc(-c3ccc(S(C)(=O)=O)cc3)sc2-c2ccncc2)c1
0

Enter %Inh (test system DCAMKL1) for CC(C)(C)n1cnc2c(N)ncnc21
0

Enter %Inh (test system DCAMKL1) for c1ccc(-c2cc(-c3c[nH]nc3-c3ccccn3)ccn2)cc1
0

Enter %Inh (test system DCAMKL1) for C[C@@H](Oc1cc(-n2cnc3ccc(NC(=O)NC(C)(C)C)cc32)sc1C(N)=O)c1ccccc1Cl
31

Enter %Inh (test system DCAMKL1) for Cl.Nc1ncnc2occ(-c3ccc(NC(=O)Nc4cc(C(F)(F)F)ccc4F)cc3)c12
17

Enter %Inh (test system DCAMKL1) for COc1cc2c(cc1OCCN1CCN(C)CC1)ncc1c3ccc(C#N)cc3[nH]c21
40

Enter %Inh (test system DCAMKL1) for COc1ccc(S(=O)(=O)NC2CCN(c3cc(C)nc(Nc4cccc(C#N)c4)n3)CC2)cc1.O=C(O)C(F)(F)F
0

Enter %Inh (test system DCAMKL1) for Fc1ccc(-c2ncn(CCCN3CCOCC3)c2-c2cccnc2)cc1
19

Enter %Inh (test system DCAMKL1) for O=C1NC(=O)C(N2CCc3ccccc32)=C1c1cccc(Cl)c1
0

Enter %Inh (test system DCAMKL1) for Nc1nc(-c2ccc3c(N)n[nH]c3c2)cc(N2CCCC2)n1
13

Enter %Inh (test system DCAMKL1) for Fc1ccc(-c2nn3c(OCC(F)(F)F)cccc3c2-c2ccncc2)cc1
0

Enter %Inh (test system DCAMKL1) for O=C(NOCC1CC1)c1ccc(F)c(F)c1Nc1ccc(I)cc1Cl
0

Enter %Inh (test system DCAMKL1) for Cn1cc(-c2ccc3c(c2)CCN3C(=O)Cc2ccccc2Cl)c2c(N)ncnc21
13

Enter %Inh (test system DCAMKL1) for Cc1nnc(-c2ccc3ncc(-c4ccc(S(C)=O)cc4)n3c2)o1 (stereo not drawn)
18

Enter %Inh (test system DCAMKL1) for COc1cc2c(cc1OC[C@@H](O)CO)ncc1c3ccc(C#N)cc3[nH]c21
0
